Target: recombinant SARS-CoV-2 RBD with C-terminal AviTag (SARS-CoV-2, UniProt P0DTC2 319-541)
Experiment: ELISA, competition with coated ACE2-Fc for RBD [Cont. 4]
Reported IC50 values follow for various binders
reported_endpoint: IC50 (nM)

1. PP837 MBP-R5D-B2-H6 (VHH, Form: Monomer) VHH: QVQLVESGGGLVQPGGSLRLSCAASGSIWSIAFMSWYRQAPGKGREWVAAITTGNDEAYADSVKGRFTISRDNAKNTVYLQMNSLKPEDTAVYYCAANTYERTPDGRTFSYWGQGTQVTVSS	3.7
2. PP836 MBP-R5D-A1-H6 (VHH, Form: Monomer) VHH: QVQLVESGGGLVQPGGSLRLSCAASGSISSYNAMHWFRQAPGKQREWVAGLTSSGSDGYVDSVKGRFTISRDNAKNTVYLQMNSLKPEDTAVYYCNAFSYHTYSRYDFWGQGTQVTVSS	6.2
3. MBP-5HVZ-R5D-B6-H6 (VHH, dimer) VHH: QVQLVESGGGLVQPGGSLRLSCAASGRILAANIVHWYRQAPGKEREGVAGITSGGGSYYADSVKGRFTISRDNAKNTVYLQMNSLKPEDTAVYYCNALGLGQSSLYRSADPYDSWGQGTQVTVSS	15.7
4. PP831 MBP-R5C-F3-H6 (VHH, Form: Monomer) VHH: QVQLVESGGGLVQPGGSLRLSCAASGTIPSINYTAWYRQAPGKQRELVASLTSGDNRYYTDSVKGRFTISRDNAKNTVYLQMNSLKPEDTAVYYCNAKTVGSSYRDSYNYWGQGTQVTVSS	151
5. MBP-5HVZ-R5C-G2-H6 (VHH, dimer) VHH: QVQLVESGGGLVQPGGSLRLSCAASGSATSINRMAWVRQAPGKEREWVAVIDSGGYTYYADSVKGRFTISRDNAKNTVYLQMNSLKPEDTAVYYCNAVPVTTDKTPMYQYWGQGTQVTVSS	121
